B1: PPEF2 (parent)
chain: DHSGFISLDEFRQTWKLFSSHMNI

variants of: B1; assay: protein stability index of a GFP-peptide fusion (GPS, HEK-293T) (PSI 1-6); higher = more stable; conditions: c terminus: a fixed tail appended;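 also: lentivirally expressed fusions sorted by FACS into six bins by GFP to DsRed ratio, PSI derived from sequencing read proportions per bin multiplied by bin number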
Below: a set of entries, each annotated with reported protein stability index.
Answer with a number only.

Here is how some variants turned out for protein stability index.
residue_sequence: DHNGFISLDEFRQTWKLFSSHMNI [S3N]
protein stability index: 1.99
//
residue_sequence: DHSGFISLDEFRQTWKLFSSHINI [M22I]
protein stability index: 2.02
//
residue_sequence: DHSGFISLDMFRQTWKLFSSHMNI [E10M]
protein stability index: 2.26
//
residue_sequence: DHSGFISLDEFRQTWKLFSKHMNI [S20K]
protein stability index: 1.81
//
residue_sequence: DHSGFISLDEFRQLWKLFSSHMNI [T14L]
protein stability index: 1.66

Sample DHSGFISLDEFRQTWKLFSSQMNI [H21Q] ; protein stability index observed: 1.06

Sample DHSGFISLDEPRQTWKLFSSHMNI [F11P] ; protein stability index observed: 1.85

Sample DHSGFISLDEFRKTWKLFSSHMNI [Q13K] ; protein stability index observed: 1.68

Sample DHSGFISLDEFRQTWKLFSNHMNI [S20N] ; protein stability index observed: 1.71

Sample DHSGFISLDEFRRTWKLFSSHMNI [Q13R] ; protein stability index observed: 2.03

Sample DHSGFISLDEFRQTWKLFSSCMNI [H21C] ; protein stability index observed: 2.9

Sample DHSGFSSLDEFRQTWKLFSSHMNI [I6S] ; protein stability index observed: 1.75

Sample DHSGFISCDEFRQTWKLFSSHMNI [L8C] ; protein stability index observed: 1.71
